- Test details: Cytotoxicity assay
- Format: cell-based
- Stated conditions: human, Huh7 cells
Readout kind: CC50 at 48 h (µM)
Give just the numeric value; µM need not be written.

Previously resolved entries follow.
{"Compound": "CCCCCCCCCCCCCCCC[N+](C)(C)C [cetrimonium bromide]", "Data value": 7.88}
{"Compound": "Oc1c(Cl)cc(Cl)c(Cl)c1Cc1c(O)c(Cl)cc(Cl)c1Cl [hexachlorophene]", "Data value": 10}
{"Compound": "O=[N+]([O-])c1ccc(O)c2ncccc12 [nitroxoline]", "Data value": 9.29}

Fill in: CC50 at 48 h of NC(=O)N1CCC(CC(=O)N2CCC([C@H]3c4ncc(Br)cc4CCc4cc(Cl)cc(Br)c43)CC2)CC1 [lonafarnib] is ___
11.4
